These data points were gathered from patent US20260083704A1.

EXPERIMENT: Phase 1 study, SAD cohorts: plasma pharmacokinetics
Format: in vivo, human
ASSAY CONDITIONS: both sexes, human, oral, Day 1, 6 mg, plasma, mean
Procedure: A double-blind, placebo-controlled, single- and multiple-ascending dose FIH Phase 1 study to evaluate the safety, tolerability, PK, and PD of Compound 21/3 in healthy adult subjects was performed. […] Intensive PK sampling over 72 h postdose on Day 1 (SAD and MAD) and Day 14 (MAD) was performed. Compound 21/3 plasma concentrations were determined using validated liquid chromatography-tandem mass spectrometry assay. […]
MEASUREMENT TYPE: AUC(0-inf) (ng·h/mL)
Quick note: give the figure in ng·h/mL, leave out the unit.

Data request: AUC(0-inf) for N#Cc1cccc(C#N)c1-c1c(-c2cccc(-c3ccc(C(=O)NCC(=O)O)cc3Cl)c2)n(S(=O)(=O)c2ccc(C(F)F)cc2)c2ccc(F)cc12 [Compound 21/3] ?
Data returned: 10

###

EXPERIMENT: Phase 1 study, MAD cohorts: plasma pharmacokinetics
Assay type: in vivo, human
ASSAY CONDITIONS: both sexes, human, plasma, oral, 2 mg, healthy subjects, MAD Day 14, 2 mg, fed; mean; read-out: Cmax
MEASUREMENT TYPE: Cmax
Respond with the figure and its unit, in that order.

Data request: Which value of Cmax has been reported for N#Cc1cccc(C#N)c1-c1c(-c2cccc(-c3ccc(C(=O)NCC(=O)O)cc3Cl)c2)n(S(=O)(=O)c2ccc(C(F)F)cc2)c2ccc(F)cc12 in the records?
Data returned: 0.95 ng/mL

###

TARGET: GST-LXRβ ligand-binding domain (Homo sapiens)
Construct: amino acids 156-461; NP009052
Sequence (P55055 156-460 limits assumed): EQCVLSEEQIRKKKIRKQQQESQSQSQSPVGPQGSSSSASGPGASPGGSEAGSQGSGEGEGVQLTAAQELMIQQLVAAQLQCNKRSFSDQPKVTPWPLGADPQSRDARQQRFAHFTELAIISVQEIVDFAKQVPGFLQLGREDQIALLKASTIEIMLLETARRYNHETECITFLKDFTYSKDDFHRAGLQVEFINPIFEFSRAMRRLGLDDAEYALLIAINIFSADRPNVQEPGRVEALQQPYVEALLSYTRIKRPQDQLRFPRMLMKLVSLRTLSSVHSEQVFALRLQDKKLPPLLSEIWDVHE
EXPERIMENT: TR-FRETβ activity assay (NCoA3 coactivator peptide recruitment)
ASSAY CONDITIONS: 1 μM 24(S)-25-epoxycholesterol prestimulation
Procedure: Recombinant GST-LXRβ ligand-binding domain (LBD; amino acids 156-461; NP009052; SEQ ID NO:4) was expressed in E. coli and purified via gluthatione-sepharose affinity chromatography. […] The reaction was mixed thoroughly, equilibrated for 1 h at 4° C. and vicinity of LXRβ and coactivator peptide was detected by measurement of fluorescence in a VictorX4 multiplate reader (PerkinElmer Life Science) using 340 nm as excitation and 615 and 665 nm as emission wavelengths. […]
For each record, write down the corresponding EC50.

Data request: Bench note: what EC50 did Cc1ccc(S(=O)(=O)n2c(-c3cccc(N4CC(C)(C(=O)O)C4)c3)c(-c3ccsc3C#N)c3cc(F)ccc32)cc1 [3/37] show?
Data returned: 100 to 1000 nM

Data request: For the compound COc1ccc(S(=O)(=O)n2c(-c3cccc(N4CC(C(=O)O)C4)c3)c(-c3ccsc3C#N)c3cc(F)ccc32)cn1 [5/8] , what EC50 is on record?
Data returned: 100 to 1000 nM

Data request: Return reported EC50; argument: Cc1ccc(S(=O)(=O)n2c(-c3cccc(N4CC(C(=O)O)C4)c3)c(-c3ccsc3C(=O)N(C)C)c3cc(F)ccc32)cc1 [3/28]
Data returned: > 10000 nM

Data request: Please report the recorded EC50 for Cc1ccc(S(=O)(=O)n2c(-c3cccc(-c4ccc(C(=O)O)cc4Cl)c3)c(-c3ccc(C)cc3C#N)c3cc(F)ccc32)cc1 [11/4] .
Data returned: 100 to 1000 nM

Data request: Please report the recorded EC50 for COc1cc(-c2c(-c3cccc(-c4ccc(C(=O)O)cc4Cl)c3)n(S(=O)(=O)c3ccc(C(F)F)cc3)c3ccc(F)cc23)c2c(C#N)cnn2c1 [11/46] .
Data returned: < 100 nM

Data request: Any idea what its EC50 is? The compound is CC(O)(C(=O)O)c1cc(F)c(-c2cccc(-c3c(-c4c(C#N)cccc4C#N)c4cc(F)ccc4n3S(=O)(=O)c3ccc(C(F)F)cc3)c2)c(F)c1 (stereo not drawn) [3/72]
Data returned: < 100 nM

###

EXPERIMENT: Phase 1 study, SAD cohorts: plasma pharmacokinetics
Format: in vivo, human
ASSAY CONDITIONS: both sexes, human, oral, Day 1, 0.5 mg, plasma, mean
MEASUREMENT TYPE: AUC(0-inf) (ng·h/mL)
A number alone suffices; assume ng·h/mL.

Data request: # query: AUC(0-inf) of entry N#Cc1cccc(C#N)c1-c1c(-c2cccc(-c3ccc(C(=O)NCC(=O)O)cc3Cl)c2)n(S(=O)(=O)c2ccc(C(F)F)cc2)c2ccc(F)cc12
Data returned: 1.2

###

EXPERIMENT: Phase 1 study, MAD cohorts: plasma pharmacokinetics
Format: in vivo, human
ASSAY CONDITIONS: both sexes, human, plasma, oral, 6 mg, healthy subjects, MAD Day 14, 6 mg (fasted); mean
Method: A double-blind, placebo-controlled, single- and multiple-ascending dose FIH Phase 1 study to evaluate the safety, tolerability, PK, and PD of Compound 21/3 in healthy adult subjects was performed. […] Intensive PK sampling over 72 h postdose on Day 1 (SAD and MAD) and Day 14 (MAD) was performed. Compound 21/3 plasma concentrations were determined using validated liquid chromatography-tandem mass spectrometry assay. […]
MEASUREMENT TYPE: AUC
Respond with the figure and its unit, in that order.

Data request: Fill in the blank: the reported AUC of N#Cc1cccc(C#N)c1-c1c(-c2cccc(-c3ccc(C(=O)NCC(=O)O)cc3Cl)c2)n(S(=O)(=O)c2ccc(C(F)F)cc2)c2ccc(F)cc12 [Compound 21/3] is ____.
Data returned: 0.019 µg·h/mL

###

EXPERIMENT: Phase 1 study, SAD cohorts: plasma pharmacokinetics
Format: in vivo, human
ASSAY CONDITIONS: both sexes, human, oral, Day 1, 2 mg, plasma, mean
MEASUREMENT TYPE: AUC(0-inf) (ng·h/mL)
Please respond with the number in ng·h/mL and leave the unit unwritten.

Data request: Give the measured AUC(0-inf) of N#Cc1cccc(C#N)c1-c1c(-c2cccc(-c3ccc(C(=O)NCC(=O)O)cc3Cl)c2)n(S(=O)(=O)c2ccc(C(F)F)cc2)c2ccc(F)cc12 [Compound 21/3] .
Data returned: 8.5

###

Answer each item with its documented EC50.
TARGET: LXRβ (Homo sapiens, UniProt P55055)
Construct: LXRβ (amino acids 156-461); expressed in transfected cells; host or cells: HEK293
Sequence (P55055 156-460): as the sequence (P55055 156-460 limits assumed) above
EXPERIMENT: LXR Gal4 reporter transient transfection assay (mammalian two-hybrid, HEK293), LXRβ
Format: cell-based
ASSAY CONDITIONS: ligand-binding domain (LBD) of LXRβ, HEK293; read-out: LBD-M2H Gal4β

Data request: Item COc1ccc(S(=O)(=O)n2c(-c3ccccc3)c(-c3ccc4ncccc4c3C#N)c3ccccc32)cc1 has what recorded EC50?
Data returned: 100 to 1000 nM

Data request: Recorded EC50 for Cc1ccc(S(=O)(=O)n2c(-c3cc(C4CC4C(=O)O)cs3)c(-c3ccsc3C#N)c3ccccc32)cc1 (stereo not shown) , please?
Data returned: < 100 nM

Data request: Quick one: EC50 for Cc1ccc(S(=O)(=O)n2c(-c3cccc(-c4cncc(C(C)(C)C(=O)O)c4)c3)c(-c3ccsc3C#N)c3ccccc32)cc1 ?
Data returned: 100 to 1000 nM

Data request: Please give the measured EC50 for this compound: N#Cc1sccc1-c1c(-c2ccccc2)n(S(=O)(=O)c2cccnc2)c2ccccc12
Data returned: < 100 nM

Data request: Can you share its EC50? I mean this compound: COc1ccc(S(=O)(=O)n2c(-c3ccccc3)c(-c3c(C#N)sc4ccccc34)c3ccccc32)cc1
Data returned: < 100 nM

Data request: What measured EC50 goes with COc1ccc(S(=O)(=O)n2c(-c3ccccc3)c(-c3ccsc3C)c3ccccc32)cc1 ?
Data returned: < 100 nM

Data request: Name the recorded EC50 for N#Cc1sccc1-c1c(-c2cccs2)n(S(=O)(=O)c2ccc(Cl)cc2)c2cc(OCCCCC(=O)O)ccc12 .
Data returned: < 100 nM

Data request: # EC50 lookup, item N#Cc1sccc1-c1c(-c2ccccc2)n(S(=O)(=O)c2ccc(Cl)cc2)c2ccccc12
Data returned: < 100 nM

Data request: Which measured EC50 value corresponds to COc1ccc(S(=O)(=O)n2c(-c3cccs3)c(-c3ccsc3C#N)c3ccccc32)cc1 ?
Data returned: < 100 nM

Data request: Report EC50 for Cc1cc(C)c(S(=O)(=O)n2c(-c3cccs3)c(-c3ccsc3C#N)c3ccccc32)c(C)c1 please.
Data returned: < 100 nM

Data request: I'd like to know its EC50. The compound in question is Cc1ccc(S(=O)(=O)n2c(-c3cccc(/C=C/C(=O)O)c3)c(-c3ccsc3C#N)c3ccccc32)cc1
Data returned: < 100 nM

Data request: Tell me the measured EC50 of CS(=O)(=O)c1ccccc1-c1c(-c2cccs2)n(S(=O)(=O)c2ccc(Cl)cc2)c2ccccc12 , please.
Data returned: 100 to 1000 nM

Data request: Item N#Cc1sccc1-c1c(-c2cccs2)n(S(=O)(=O)c2ccc(CCC(=O)O)cc2)c2ccccc12 has what recorded EC50?
Data returned: < 100 nM

Data request: Please report the recorded EC50 for N#Cc1sccc1-c1c(-c2cccs2)n(S(=O)(=O)C2CCCCC2)c2ccccc12 .
Data returned: < 100 nM

Data request: # EC50 lookup, item Cc1ccc(S(=O)(=O)n2c(-c3cccc(N4CC(C(=O)O)C4)c3)c(-c3ccsc3C#N)c3cc(F)c(Cl)cc32)cc1
Data returned: 100 to 1000 nM

Data request: State the recorded EC50 for this entry: N#Cc1sccc1-c1c(-c2cccc(N3CC(C(=O)O)C3)n2)n(S(=O)(=O)c2ccc(Cl)cc2)c2ccccc12
Data returned: 100 to 1000 nM

Data request: I am curious: what EC50 value has been reported for COc1ccc(S(=O)(=O)n2c(-c3ccccc3)c(C3=C(C#N)CCCC3)c3ccccc32)cc1 ?
Data returned: 100 to 1000 nM

Data request: Entry under review: N#Cc1c(OCC(=O)O)cccc1-c1c(-c2cccs2)n(S(=O)(=O)c2ccc(Cl)cc2)c2ccccc12 . Reported EC50?
Data returned: 1000 to 10000 nM

Data request: Requested field: EC50. Item: N#Cc1sccc1-c1c(-c2cccc(N3CC(C(=O)O)C3)c2)n(S(=O)(=O)c2ccccc2)c2ccc(F)cc12
Data returned: < 100 nM

Data request: Item Cc1ncc(S(=O)(=O)n2c(-c3ccccc3)c(-c3ccsc3C#N)c3ccccc32)s1 has what recorded EC50?
Data returned: < 100 nM

Data request: Report EC50 for Cc1cccc(S(=O)(=O)n2c(-c3cccc(N4CC(C(=O)O)C4)c3)c(-c3ccsc3C#N)c3cc(F)ccc32)c1 please.
Data returned: < 100 nM

Data request: Item under review: N#Cc1cscc1-c1c(-c2cccs2)n(S(=O)(=O)c2ccc(Cl)cc2)c2ccccc12 . Reported EC50?
Data returned: < 100 nM

Data request: Fill in: EC50 of Cn1cnc(S(=O)(=O)n2c(-c3cccs3)c(-c3ccsc3C#N)c3ccccc32)c1 is ___
Data returned: < 100 nM

Data request: What value of measured EC50 is listed for Cc1ccc(S(=O)(=O)n2c(-c3ccc(CC(C)(C)C(=O)O)s3)c(-c3ccsc3C#N)c3ccccc32)cc1 ?
Data returned: 100 to 1000 nM

Data request: May I ask what EC50 has been recorded for COc1ccc(S(=O)(=O)n2c(-c3ccc(CCC(=O)O)cc3)c(-c3ccsc3C#N)c3ccccc32)cc1 ?
Data returned: 100 to 1000 nM

Data request: Given the compound N#Cc1sccc1-c1c(-c2cc(Cl)cc(C3CC3C(=O)O)c2)n(S(=O)(=O)c2ccc(Cl)cc2)c2ccccc12 (stereo not shown) , what is its reported EC50?
Data returned: < 100 nM

Data request: State the recorded EC50 for this entry: N#Cc1sccc1-c1c(-c2cccs2)n(S(=O)(=O)c2ccc(Cl)cc2)c2ccc(OCCCC(=O)O)cc12
Data returned: 100 to 1000 nM

Data request: Given COc1ccc2c(-c3ccsc3C#N)c(-c3cccs3)n(S(=O)(=O)c3ccc(Cl)cc3)c2c1 , state its recorded EC50.
Data returned: < 100 nM

Data request: GET /values?readout=EC50&item= COc1ccc(S(=O)(=O)n2c(-c3ccccc3)c(-c3cc(C)sc3C#N)c3ccccc32)cc1
Data returned: 100 to 1000 nM

Data request: What value of EC50 has been recorded for this entry: N#Cc1sccc1-c1c(-c2cccs2)n(S(=O)(=O)c2ccc(F)cc2)c2ccccc12
Data returned: < 100 nM

Data request: // returns reported EC50 for input N#Cc1sccc1-c1c(-c2cccs2)n(S(=O)(=O)c2ccc(Cl)cc2)c2cc(OCCCC(=O)O)ccc12
Data returned: < 100 nM
